Catalogue of log10 of IC50 values
# measured on: Cytochrome P450 2J2 (Homo sapiens, UniProt P51589)
# Sequence (P51589 whole entry): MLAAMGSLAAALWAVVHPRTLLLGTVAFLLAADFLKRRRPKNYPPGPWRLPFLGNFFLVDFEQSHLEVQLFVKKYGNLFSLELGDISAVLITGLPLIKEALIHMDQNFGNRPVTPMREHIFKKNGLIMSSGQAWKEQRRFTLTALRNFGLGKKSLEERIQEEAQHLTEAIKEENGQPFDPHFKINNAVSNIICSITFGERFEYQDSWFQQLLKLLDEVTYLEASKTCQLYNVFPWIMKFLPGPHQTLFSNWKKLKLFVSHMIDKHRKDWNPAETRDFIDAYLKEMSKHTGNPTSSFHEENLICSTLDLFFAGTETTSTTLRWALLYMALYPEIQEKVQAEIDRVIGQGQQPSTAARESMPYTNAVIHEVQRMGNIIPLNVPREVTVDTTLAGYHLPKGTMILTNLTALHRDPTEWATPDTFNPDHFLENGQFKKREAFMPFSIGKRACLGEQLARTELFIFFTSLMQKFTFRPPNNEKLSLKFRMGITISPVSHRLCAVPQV
# assay comment: Inhibition of human recombinant CYP2J2 expressed in baculovirus-infected Sf9 insect cells
Friendly reminder: values = log10 of IC50, unit nM.

Observe how each entry below is paired with its result.
{"test smiles": "CCc1ccc(C(=O)CCCN2CCC(C(O)(c3ccccc3)c3ccccc3)CC2)cc1", "quantitative readout": 2.78}
{"test smiles": "O=C(CCCN1CCC(C(O)(c2ccccc2)c2ccccc2)CC1)c1ccc2c(c1)OCO2", "quantitative readout": 3.83}
{"test smiles": "CCCc1ccc(C(=O)CCCN2CCC(C(O)(c3ccccc3)c3ccccc3)CC2)cc1", "quantitative readout": 2.60}
{"test smiles": "COc1ccc(C(=O)CCCN2CCC(C(O)(c3ccccc3)c3ccccc3)CC2)cc1", "quantitative readout": 3.88}
{"test smiles": "O=C(CCCN1CCC(C(O)(c2ccccc2)c2ccccc2)CC1)c1ccc(Br)cc1", "quantitative readout": 3.62}

get_value(item= `O=C(CCCN1CCC(C(O)(c2ccccc2)c2ccccc2)CC1)c1ccc(CC(F)F)cc1` , readout=log10 of IC50) returns 3.34

get_value(item= `C=CCc1ccc(C(=O)CCCN2CCC(C(O)(c3ccccc3)c3ccccc3)CC2)cc1` , readout=log10 of IC50) returns 2.60

get_value(item= `CCCCc1ccc(C(=O)CCCN2CCC(C(O)(c3ccccc3)c3ccccc3)CC2)cc1` , readout=log10 of IC50) returns 2.85

get_value(item= `O=C(CCCN1CCC(C(O)(c2ccccc2)c2ccccc2)CC1)c1ccc(CCCO)cc1` , readout=log10 of IC50) returns 3.28

get_value(item= `O=C(CCCN1CCC(C(O)(c2ccccc2)c2ccccc2)CC1)c1ccc(CCO)cc1` , readout=log10 of IC50) returns 3.11

get_value(item= `CC(=O)OCCCc1ccc(C(=O)CCCN2CCC(C(O)(c3ccccc3)c3ccccc3)CC2)cc1` , readout=log10 of IC50) returns 3.40

get_value(item= `CC(C)(C)c1ccc(C(=O)CCCN2CCC(C(O)(c3ccccc3)c3ccccc3)CC2)cc1` , readout=log10 of IC50) returns 2.85

get_value(item= `Cc1ccc(C(=O)CCCN2CCC(C(O)(c3ccccc3)c3ccccc3)CC2)cc1` , readout=log10 of IC50) returns 2.85

====

# measured on: UniProt P20813
# Sequence (P20813 whole entry): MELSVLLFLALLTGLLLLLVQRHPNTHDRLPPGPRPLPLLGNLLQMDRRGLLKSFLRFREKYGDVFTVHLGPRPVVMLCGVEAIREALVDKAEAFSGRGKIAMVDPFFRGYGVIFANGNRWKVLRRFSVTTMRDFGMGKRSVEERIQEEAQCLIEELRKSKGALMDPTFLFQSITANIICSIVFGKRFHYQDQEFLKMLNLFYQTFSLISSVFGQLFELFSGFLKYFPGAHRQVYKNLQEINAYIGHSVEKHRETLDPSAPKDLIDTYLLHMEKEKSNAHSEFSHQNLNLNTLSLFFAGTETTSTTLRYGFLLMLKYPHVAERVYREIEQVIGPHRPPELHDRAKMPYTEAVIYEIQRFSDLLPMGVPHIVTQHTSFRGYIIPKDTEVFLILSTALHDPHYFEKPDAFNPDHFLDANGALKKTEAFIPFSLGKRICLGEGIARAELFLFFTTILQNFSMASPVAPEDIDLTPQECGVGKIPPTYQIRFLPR
# assay comment: Inhibition of human recombinant CYP2B6
experimental endpoint: IC50 (µM)
Lab book: enter the figure in µM, no units written.

{"test smiles": "C=CCc1ccc(C(=O)CCCN2CCC(C(O)(c3ccccc3)c3ccccc3)CC2)cc1", "measured on": "UniProt P20813", "IC50, µM": 21}

Query compound follows.
get_value(item= `CCCc1ccc(C(=O)CCCN2CCC(C(O)(c3ccccc3)c3ccccc3)CC2)cc1` , readout=IC50) returns 28

====

# measured on: Cytochrome P450 3A4 (Homo sapiens, UniProt P08684)
# Sequence (P08684 whole entry): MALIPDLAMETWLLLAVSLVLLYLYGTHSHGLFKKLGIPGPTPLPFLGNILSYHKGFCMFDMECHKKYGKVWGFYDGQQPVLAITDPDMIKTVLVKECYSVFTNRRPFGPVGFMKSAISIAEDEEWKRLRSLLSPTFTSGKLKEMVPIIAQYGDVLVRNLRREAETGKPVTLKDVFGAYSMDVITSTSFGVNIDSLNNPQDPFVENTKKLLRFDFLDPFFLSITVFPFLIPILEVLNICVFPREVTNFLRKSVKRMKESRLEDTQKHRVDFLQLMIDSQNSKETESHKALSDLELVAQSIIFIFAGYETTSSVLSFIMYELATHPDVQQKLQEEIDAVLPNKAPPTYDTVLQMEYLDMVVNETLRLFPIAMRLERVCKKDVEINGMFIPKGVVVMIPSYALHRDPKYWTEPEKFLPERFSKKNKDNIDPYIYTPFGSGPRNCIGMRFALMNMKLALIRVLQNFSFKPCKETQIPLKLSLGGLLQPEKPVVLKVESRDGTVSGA
# assay comment: Inhibition of human recombinant CYP3A4
Catalogue of IC50 values

Entry `CCCc1ccc(C(=O)CCCN2CCC(C(O)(c3ccccc3)c3ccccc3)CC2)cc1` ; assay system Cytochrome P450 3A4 (Homo sapiens, UniProt P08684); IC50 recorded at 7.9 µM

Entry `C=CCc1ccc(C(=O)CCCN2CCC(C(O)(c3ccccc3)c3ccccc3)CC2)cc1` ; assay system Cytochrome P450 3A4 (Homo sapiens, UniProt P08684); IC50 recorded at 5.5 µM

====

# measured on: Cytochrome P450 2J2 (Homo sapiens, UniProt P51589)
# assay comment: Inhibition of human recombinant CYP2J2 expressed in baculovirus-infected Sf9 insect cells
experimental endpoint: pKi
In textbook form, pKi equals minus log to base ten of the concentration in mol/L.

get_value(item= `CCCc1ccc(C(=O)CCCN2CCC(C(O)(c3ccccc3)c3ccccc3)CC2)cc1` , readout=pKi) returns 6.80
